MEASUREMENT NOTES: Pharmacokinetic profile, plasma concentrations by LC/MS/MS
Assay type: in vivo, female Crl: CD1 mice
EXPERIMENTAL SETUP: female, Crl: CD1, mouse; iv, 30 mg/kg, mice plasma; read-out: AUC
PARAMETER: AUC (µM·h)

>>> measured("CC(C)=CCC/C(C)=C/CC/C(C)=C/CN1C(=O)c2cccc(O)c2N(C)c2c(O)cc(O)cc21 [Compound 2]")
92.1
>>> measured("CC(C)=CCC/C(C)=C/CC/C(C)=C/CN1C(=O)c2cccc(O)c2Nc2c(O)cc(O)cc21 [Compound 1]")
40.4

----------
Test system: 36 cancer cell lines
MEASUREMENT NOTES: Anticancer activity profiling against 36 cell lines (IC50)
Format: cell-based
EXPERIMENTAL SETUP: Lung, cell line 629L (Xenograft), adeno ca; read-out: IC50
Protocol: Compounds were dissolved at 10 mM in DMSO. Dilution in vehicle to concentrations of 30, 10, 3, 1 and 0.3 μM were prepared immediately before assays. […] The following day, propidium iodide was added to one of the two plates and fluorescence measured (Tz). […] The equivalent cell number was determined after adding propidium iodide by measuring the signal by fluorescence (C for control).
PARAMETER: IC50

>>> measured("CC(C)=CCC/C(C)=C/CC/C(C)=C/CN1C(=O)c2cccc(O)c2N(C)c2c(O)cc(O)cc21")
"164 nM"
